Test system: Parabacteroides merdae
EXPERIMENT DESCRIPTION: growth AUC relative to DMSO control (median of replicates) (fraction); higher = more growth (less inhibition), active = hit call of the paper
SETTINGS: 20 µM; 24 h

COMPOUND | SYSTEM UNDER TEST | growth AUC
NC(=O)/N=C1/SCCN1Cc1ccc(Cl)nc1 | Parabacteroides merdae | 0.984 (inactive)
CCOP(=S)(OCC)Oc1ccc(Cl)cc1Cl | Parabacteroides merdae | 0.997 (inactive)
c1nc[n]([Sn]([CH]2CCCCC2)([CH]2CCCCC2)[CH]2CCCCC2)n1 | Parabacteroides merdae | 0.746 (active)
CC(Oc1ccc(Oc2ncc(C(F)(F)F)cc2Cl)cc1)C(=O)O (stereo not given) | Parabacteroides merdae | 0.976 (inactive)
CCC(=O)Nc1ccc(Cl)c(Cl)c1 | Parabacteroides merdae | 0.995 (inactive)
O=C(O)c1ccccc1C(=O)Nc1cccc2ccccc12 | Parabacteroides merdae | 0.987 (inactive)
CCOP(=S)(OCC)OP(=S)(OCC)OCC | Parabacteroides merdae | 0.984 (inactive)
O=[N+]([O-])c1ccc(Oc2ccc(C(F)(F)F)cc2[N+](=O)[O-])cc1 | Parabacteroides merdae | 0.953 (inactive)
COc1nn(CSP(=S)(OC)OC)c(=O)s1 | Parabacteroides merdae | 1.04 (inactive)
CNC(=O)Oc1cc(C)c(S(C)=O)c(C)c1 (stereo not given) | Parabacteroides merdae | 1.05 (inactive)
CC/C(=N\OC/C=C/Cl)C1=C(O)CC(C2CCOCC2)CC1=O (stereo not given) | Parabacteroides merdae | 1.02 (inactive)
COP(=S)(OC)Oc1ccc(S(N)(=O)=O)cc1 | Parabacteroides merdae | 1.01 (inactive)
C[C@H]1[C@H](c2ccc(Cl)cc2)SC(=O)N1C(=O)NC1CCCCC1 | Parabacteroides merdae | 0.947 (inactive)
CC(C)(C)[C@@H](O)[C@H](Oc1ccc(Cl)cc1)n1cncn1 | Parabacteroides merdae | 1.01 (inactive)
CNC(=O)Oc1ccccc1OC(CCl)OC (stereo not given) | Parabacteroides merdae | 1.06 (inactive)
CSC1=N[C@@](C)(c2ccccc2)C(=O)N1Nc1ccccc1 | Parabacteroides merdae | 0.953 (inactive)
CCCCOCN(C(=O)CCl)c1c(CC)cccc1CC | Parabacteroides merdae | 0.976 (inactive)
COC(=O)C(C)Oc1ccc(Oc2ccc(Cl)cc2Cl)cc1 (stereo not given) | Parabacteroides merdae | 0.96 (inactive)
O=C(O)CNCP(=O)(O)O | Parabacteroides merdae | 1.04 (inactive)
CCOP(=O)(OCC)O/C(=C/Br)c1ccc(Cl)cc1Cl | Parabacteroides merdae | 0.898 (inactive)
CN(C)NC(=O)CCC(=O)O | Parabacteroides merdae | 1.02 (inactive)
Oc1ccccc1-c1ccccc1 | Parabacteroides merdae | 1.04 (inactive)
NCCO.O=C(O)c1nc(Cl)ccc1Cl | Parabacteroides merdae | 1.01 (inactive)
COc1cc(OC)nc(NC(=O)NS(=O)(=O)c2ncccc2C(F)(F)F)n1 | Parabacteroides merdae | 1.04 (inactive)
CCc1cccc(CC)c1N(COC)C(=O)CCl | Parabacteroides merdae | 0.978 (inactive)

---

growth AUC: recorded values
Test system: Bacteroides uniformis
EXPERIMENT DESCRIPTION: growth AUC relative to DMSO control (median of replicates) (fraction); higher = more growth (less inhibition), active = hit call of the paper
SETTINGS: 20 µM; 24 h
MEASURED ATTRIBUTE: growth AUC

SUBSTANCE SMILES | SYSTEM UNDER TEST | OBSERVED VALUE
O=S(=O)(c1ccccc1)c1ccccc1 | Bacteroides uniformis | 0.982 (inactive)
Cc1nc(N(C)C)nc(OC(=O)N(C)C)c1C | Bacteroides uniformis | 0.977 (inactive)
CN(C)C(CSS(=O)(=O)[O-])CSS(=O)(=O)[O-].[Na+].[Na+] | Bacteroides uniformis | 1.14 (inactive)
COC(=O)NC(=S)Nc1ccccc1NC(=S)NC(=O)OC | Bacteroides uniformis | 0.988 (inactive)
O=P(OCCCl)(OCCCl)OCCCl | Bacteroides uniformis | 0.874 (inactive)
O=C(Nc1ccccc1)c1ccccc1I | Bacteroides uniformis | 0.975 (inactive)
COC[C@H](C)N(C(=O)CCl)c1c(C)csc1C | Bacteroides uniformis | 0.981 (inactive)

Data origin: the supplement of paper PMC12669032
